Provide the recorded cytotoxicity at 70.5 h for the entries that follow.
- PROTOCOL NOTES: Human HepG2 cell viability assay in 384 well format
- Format: toxicity, cell-based
- Parameters: dose 125 nL, time 70.5 hour; concentration not given beside the values
- MEASUREMENT CONDITIONS: HepG2 cells, read-out: Inhibition
Answers are plain numbers, in %.

{"COMPOUND": "CCc1nc(CN(C)C2CCN(CCc3cccs3)C2)no1 (configuration not stated)", "cytotoxicity at 70.5 h, %": -6.05}
{"COMPOUND": "COc1ccc(CN2C[C@@H](CN(C)C)[C@@H](CO)C2)cc1OC", "cytotoxicity at 70.5 h, %": -3.1}
{"COMPOUND": "COc1cc(C)sc1C(=O)N1CCCC(n2nc(C)nc2C)C1 (configuration not stated)", "cytotoxicity at 70.5 h, %": 21.7}
{"COMPOUND": "CC(=O)Cn1cc(C#N)c(=O)c2cc(Br)ccc21", "cytotoxicity at 70.5 h, %": -13.6}
{"COMPOUND": "COCCCNC(=O)NCc1cccn1Cc1ccccc1C", "cytotoxicity at 70.5 h, %": -20.3}
{"COMPOUND": "CC1=N[C@@]2(CC[C@@H]3CN(C(=O)NCCc4ccccc4)C[C@@H]32)C(=O)N1", "cytotoxicity at 70.5 h, %": 7.76}
{"COMPOUND": "Cc1ccccc1OCC1CCCN(C(=O)CN(C)C2CCNCC2)C1 (configuration not stated)", "cytotoxicity at 70.5 h, %": -4.15}
{"COMPOUND": "Cc1cccc(C(C(=O)N2CC(c3ccccn3)C2)N(C)C)c1 (configuration not stated)", "cytotoxicity at 70.5 h, %": -3.41}

Count: 8. Required value per item: cytotoxicity at 70.5 h.
1. O=C(c1ccc2cc[nH]c2c1)N1CCCN(Cc2cscn2)CC1
2. Cc1ccccc1-c1cncc(C2CCN(Cc3cnn(C)c3)CC2)n1
3. CN1C(=O)[C@H]2CC[C@@H]1CN(C(=O)Nc1ccccc1C(F)(F)F)C2
4. CCN1CCCCC1C(=O)N1CCC(OCCOC)CC1 (configuration not stated)
5. COc1ccccc1OCc1cc(C(=O)N2CCN(C(C)=O)CC2)n[nH]1
6. O=C(O)C(c1ccc(Cl)c(F)c1)N1CCN(Cc2ccccn2)CC1 (configuration not stated)
7. O=C(Cc1ccsc1)N1CCCC2(COCCN(CC3CC3)C2)C1 (configuration not stated)
8. CC(=O)N1CCC(CCc2ccnc(NC(=O)c3ccccn3)c2)CC1

-2.03
-9.46
-4.06
1.39
-5.97
-2.57
1.23
12

###

Provide the recorded cytotoxicity at 70.5 h for the entries that follow.
- PROTOCOL NOTES: Human HepG2 cell viability assay in 384 well format
- Type: toxicity, cell-based
- Parameters: dose 125 nL, time 70.5 hour; concentration not given beside the values
- MEASUREMENT CONDITIONS: HepG2 cells, read-out: Inhibition
Numbers only, in %.

{"COMPOUND": "CCN(CC1CCOC1)C(=O)Cn1nnn(-c2cccs2)c1=O (stereo unspecified)", "UNIT OF MEASURE": "%", "cytotoxicity at 70.5 h": -15.9}
{"COMPOUND": "CCN(CC)c1ccc(NS(=O)(=O)c2cnn(CC)c2)cn1", "UNIT OF MEASURE": "%", "cytotoxicity at 70.5 h": 1.09}
{"COMPOUND": "CCC(=O)Nc1ccc(N2CCC(OC)CC2)c(C(F)(F)F)c1", "UNIT OF MEASURE": "%", "cytotoxicity at 70.5 h": -4.77}

Count: 3. Required value per item: cytotoxicity at 70.5 h.
1. O=S(=O)(NC1CCCCC12OCCO2)c1ccc2c(c1)OCCO2 (stereo unspecified)
2. c1cc(CCNc2ncnc3c2CCN(Cc2ccoc2)CC3)ccn1
3. CCOC(=O)c1cnn(C2CCN(C(=O)CCC(C)C)CC2)c1N

1: -7.16; 2: 0.564; 3: 0.0774

###

- PROTOCOL NOTES: Human HepG2 cell viability assay in 384 well format
- Type: toxicity, cell-based
- Parameters: dose 125 nL, time 70.5 hour; concentration not given beside the values
- MEASUREMENT CONDITIONS: HepG2 cells, read-out: Inhibition
MEASUREMENT TYPE: cytotoxicity at 70.5 h (%)
Give bare numbers, in %.

{"MOLECULE": "c1csc(-c2nc(CN3CCCCC3Cn3cccn3)co2)c1 (centres undefined)", "cytotoxicity at 70.5 h [%]": -58}
{"MOLECULE": "CCn1cc(S(=O)(=O)NCC(OC)c2ccccc2)cn1 (centres undefined)", "cytotoxicity at 70.5 h [%]": -3.94}
{"MOLECULE": "Cc1ccc(CN2Cc3nnn(C)c3C(COCc3ccccc3)C2)s1 (centres undefined)", "cytotoxicity at 70.5 h [%]": 4.74}
{"MOLECULE": "COCCn1c(-c2cccc(OC)c2)cnc1NC(=O)NC1CCCC1", "cytotoxicity at 70.5 h [%]": 6.84}
{"MOLECULE": "CC(C)(C(=O)NCCCC(N)=O)c1cccc(Br)c1", "cytotoxicity at 70.5 h [%]": -8.19}
{"MOLECULE": "CN1CCC(Oc2ccc(-n3ccnc3-c3ccncc3)cc2)CC1", "cytotoxicity at 70.5 h [%]": -13.2}

Count: 8. Required value per item: cytotoxicity at 70.5 h.
1. O=C(Cc1ccncc1)N(CCO)CCSc1ccc(Cl)cc1
2. COc1ccc2nnc(C(=O)NCC3CCCC3)nc2c1
3. Cc1cc(C)n(CC2CN(CC(=O)Nc3cccnc3)CCO2)n1 (centres undefined)
4. COc1c(CNC2CCc3cc(Cl)ccc32)c(C)nn1C (centres undefined)
5. COc1c(CNC(c2ccccc2)c2nccn2C)c(C)nn1C (centres undefined)
6. O=C(CN1CCCC(Cn2cncn2)C1)NCCC1=CCCCC1 (centres undefined)
7. CC(=O)NC(C)C(=O)Nc1ccc(OCc2cccc(F)c2)cc1C (centres undefined)
8. C1CC(CN2CC[C@@H]3O[C@@H](c4nnc(C5CC5)o4)C[C@H]3C2)CCO1

[-12.1, -4.54, -4.57, -3.82, -0.0475, 7.12, -9.98, -9.09]

###

- PROTOCOL NOTES: Human HepG2 cell viability assay in 384 well format
- Format: toxicity, cell-based
- Design: dose 125 nL, time 70.5 hour; concentration not given beside the values
- MEASUREMENT CONDITIONS: HepG2 cells, read-out: Inhibition
Provide the recorded cytotoxicity at 70.5 h for the entries that follow.
Numbers only, in %.

Study these solved cases before continuing.
{"MOLECULE": "c1cncc(OCC2CN(Cc3ccsc3)Cc3nccn3C2)c1 (stereo not drawn)", "cytotoxicity at 70.5 h, %": 6.26}
{"MOLECULE": "O=C(Cc1ccccc1)N1CCC2(CC(=O)N(c3cccc(F)c3)C2)C1 (stereo not drawn)", "cytotoxicity at 70.5 h, %": -4.78}
{"MOLECULE": "CN(C)CCN1C(=O)CC[C@@H]2[C@H]1CCN2Cc1cccc(C#N)c1", "cytotoxicity at 70.5 h, %": -8.56}
{"MOLECULE": "Cc1ncc2c(n1)CN(CC(=O)Nc1cc(C)on1)CC2", "cytotoxicity at 70.5 h, %": -5.61}
{"MOLECULE": "O=C(Cn1cc(-n2cccc2)cn1)NCC(F)(F)F", "cytotoxicity at 70.5 h, %": -12.8}

Count: 5. Required value per item: cytotoxicity at 70.5 h.
1. CCS(=O)(=O)NC1CCCN(c2ccc(F)cc2C)C1=O (stereo not drawn)
2. COc1ncccc1CN1CC[C@]2(C[C@@H](OCc3ccccn3)CO2)C1
3. Cc1ccc(OCCN(C)Cc2ccc(S(=O)(=O)N(C)C)o2)cc1
4. CC(C)[C@@H]1CN(CCCOc2ccc(F)cc2)C[C@H]1NS(C)(=O)=O
5. COc1ccc(CN(C)c2nccc(-c3cn(C)nc3C)n2)cc1

1: -3.11; 2: -13.8; 3: -5.02; 4: -8.14; 5: 13.2

###

- PROTOCOL NOTES: Human HepG2 cell viability assay in 384 well format
- Assay type: toxicity, cell-based
- Set-up: dose 125 nL, time 70.5 hour; concentration not given beside the values
- MEASUREMENT CONDITIONS: HepG2 cells, read-out: Inhibition
Provide the recorded cytotoxicity at 70.5 h for the entries that follow.
Numbers only, in %.

Study these solved cases before continuing.
{"COMPOUND": "c1csc(CN2CCc3c(CNc4nncs4)cncc3C2)c1", "cytotoxicity at 70.5 h [%]": -9.12}
{"COMPOUND": "COCC(=O)N1CCCN(Cc2c(C)nc3ccc(Cl)cn23)CC1", "cytotoxicity at 70.5 h [%]": 2.35}
{"COMPOUND": "CCCn1ccnc1CN1CCC(Oc2cccc(F)c2)(C(=O)O)CC1", "cytotoxicity at 70.5 h [%]": -11}

Count: 4. Required value per item: cytotoxicity at 70.5 h.
1. CN(Cc1cc2cc(F)ccc2[nH]1)C(=O)C1CC(=O)N(C2CC2)C1 (stereo unspecified)
2. O=C(Nc1ccc(Cl)cc1)c1nn(C2CCS(=O)(=O)C2)c2c1CCCC2 (stereo unspecified)
3. COc1ccc(C2=CCN(C(=O)CN(CC(N)=O)C(C)C)CC2)cc1
4. Cc1oncc1C(=O)NCC(c1ccccc1Cl)N1CCOCC1 (stereo unspecified)

-2.65
-19.1
-4.3
-3.09

Count: 4. Required value per item: cytotoxicity at 70.5 h.
1. O=C(CC1Cn2ncnc2NC1=O)Nc1cccc(C(F)(F)F)c1 (stereo unspecified)
2. Cc1cnc(C(=O)N2CCN3C[C@H](OCc4cccnc4)C[C@H]3C2)cn1
3. CCN1CCN(c2cncc(Cl)n2)CC1
4. N#CC(NC(=O)CC(F)(F)F)c1ccsc1 (stereo unspecified)

1: -11.2; 2: -9.39; 3: 26.6; 4: -7.23
